# credit: patent US20250340522A1

# System: B. subtilis DSM 10
measured_property: MIC (µg/mL)
State the answer as a number, implicitly in µg/mL.

**Q:** Provide the documented MIC with B. subtilis DSM 10 as the system for COc1c(NC(=O)c2ccc(NC(=O)c3ccc(NC(=O)[C@H](Cc4c[nH]nn4)NC(=O)c4ccc(NC(=O)/C(C)=C/c5ccc(O)cc5)cc4)cc3I)c(OC)c2O)ccc(C(=O)O)c1O
**A:** 0.5

**Q:** So what MIC did COc1c(NC(=O)c2ccc(NC(=O)c3c(F)cc(NC(=O)[C@H](Cc4c[nH]nn4)NC(=O)c4ccc(NC(=O)/C(C)=C/c5ccc(O)cc5)cc4)cc3F)c(OC)c2O)ccc(C(=O)O)c1O get with B. subtilis DSM 10?
**A:** 0.125

**Q:** Value wanted: MIC (B. subtilis DSM 10) of entry COc1c(NC(=O)c2ccc(NC(=O)c3ccc(NC(=O)[C@H](Cc4c[nH]nn4)NC(=O)c4ccc(NC(=O)/C(C)=C/c5ccc(O)cc5)cc4)cn3)c(OC)c2O)ccc(C(=O)O)c1O [Compound 0, reference compound]
**A:** 0.031

**Q:** What measured MIC is associated with COc1c(NC(=O)c2ccc(NC(=O)c3ccc(NC(=O)[C@H](Cc4c[nH]nn4)NC(=O)c4ccc(NC(=O)/C(C)=C/c5ccc(O)cc5)cc4)cc3F)c(OC)c2O)ccc(C(=O)O)c1O on B. subtilis DSM 10?
**A:** 0.125
